Reported kcat is given for each of the following variants.
B1: glmS ribozyme (parent)
chain: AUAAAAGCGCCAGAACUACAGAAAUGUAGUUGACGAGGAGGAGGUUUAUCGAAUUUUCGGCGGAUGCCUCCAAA

Variants of: B1
Test: kcat; higher = faster cleavage; RNA array
Details: with glucosamine-6-phosphate
Variants at the floor of the assay were thinned out.
API: value field is a number in s⁻¹; no unit string.

For orientation, consider the following solved cases.
> print(dat)
                           monomer.sequence  recorded.measurement
1  AUAAAAGCGCCAGAACUACAGAAAUGUAGUUGACGAGGAGGAGGUAUAUCGAAUUAUCGGCGGAUGCCUCCAAA [U46A U56A]                 0.001
2  AUAAAAGCGCCAGGACUACAGAAAUGUAGUUGACGAGGAGGAGGUCUAUCGAAUUUUCGGCGGAUGCCUCCAAA [A14G U46C]                0.0067
3  AUAAAAGCGCUAGAACUACAGAAAUGUAGUUGAUGAGGAGGAGGUUUAUCGAAUUUUCGGCGUAUGCCUGCAAA [C11U C34U G63U C70G]              2.22e-05
4  AUAAAAGCGCCAGAACUACAGAAAUGUAGUUGACGAGGAGGAGGUUGAUUGAAUUUUCGGCGGAUGCCUCCAAA [U47G C50U]              3.97e-05

Exercise: # input variant: AUAAAAGCGCCAGAACUACAGAAAUGUAGUUGACGAGGAGGAGGUCUUUCGAAUUUUCGGCGGAUGCCUCCAAA [U46C A48U] ; wanted: its kcat
Key: 8.27e-05

Exercise: What kcat value was documented for this variant, AUAAAAGCGCGAGAACUACAGAAAUGUAGUUGACGAGGAGGAGGUUUAUCGAAUUUUCUGCGGAUGCAUCCAAA [C11G G59U C68A] ?
Key: 1.43e-05

Exercise: For AUAAAAGCGCCAGAUCUACAGAAAUGUAGUUGACGAGGAGGAGGUUUAUCGAAUGUUCGGCGGAUGCCUCCAAA [A15U U55G] , what is its reported kcat?
Key: 0.00423

Exercise: Which kcat value belongs to AUAAAAGCGCUAGAACUACAGAAAUGUAGUUGACGAGGAGGAGGUUUAUCGAUUUUUCGGCGGAUGCCUCCAAA [C11U A53U] ?
Key: 0.00137

Exercise: kcat lookup needed for AUAAAUGCGCCAGAGCUACAGAAAUGUAGUUGACGAGGAGGAGGUUUAUCGAAUUUUCGGCGGAUGCCUCCAAA [A6U A15G] , thanks.
Key: 0.000987

Exercise: Fill in: kcat of AUAAAAGCGCCAGAACUACAGAAAUGUAGUUGACGAGGAGGAGGUUUAUCGAAUUUGUGGCGGAUGCCUCCAAA [U57G C58U] is ___
Key: 2.34e-05

Exercise: Quick check: kcat of AUAAAAGCGCCAGCACUACAGAAAUGUAGUUGACGAGGAGGAGGUUUUUCGAAUUUUCGGCGGAUGCCUCCAAA [A14C A48U] ?
Key: 5.62e-05

Exercise: Entry AUAAAAGCGCCAGAACUACAGAAAUGUAUUUGACGAGGAGGAGGUUUAUCGAAUUUUCGGCGGAUGACACCAAA [G29U C67A U69A] has what kcat?
Key: 7.55e-05

Exercise: What value of kcat has been reported for the following variant? AUAAAAGCGCCCGAACUACAGAAAUGUAGUUGACGAGGAGGAGGUCUAUCGAAUUUUCGGCGGAUGCCUCCAAA [A12C U46C]
Key: 0.00298

Where these numbers come from: the supplement of paper PMC7125110
